Source of measurements: ChEMBL document CHEMBL1127375

# Tested on: HeLa
# measurement_protocol: Tested for the antiviral activity against Coxsackie B4 virus in human HeLa cells
# Type: functional
Hi there, I'd appreciate the recorded MIC for every entry that follows.

In: Using the record for Nc1ncnc2c1ncn2[C@@H]1O[C@H](/C=C\I)[C@@H](O)[C@H]1O , report its MIC.
Out: > 200 µg/mL

In: Check Nc1ncnc2c1ncn2C1O[C@H](/C=C/I)[C@@H](O)[C@H]1O (some centres not stated) too.
Out: > 100 µg/mL

In: Check Nc1ncnc2c1ncn2[C@@H]1O[C@H](/C=C\Br)[C@@H](O)[C@H]1O too.
Out: > 200 µg/mL

In: Check Nc1ncnc2c1ncn2[C@@H]1O[C@H](/C=C/Br)[C@@H](O)[C@H]1O too.
Out: > 100 µg/mL

In: Check Nc1ncnc2c1ncn2[C@@H]1O[C@H](/C=C\Cl)[C@@H](O)[C@H]1O too.
Out: > 100 µg/mL

In: Check Cc1ccc(S(=O)(=O)/C=C/[C@H]2OC(n3cnc4c(N)ncnc43)[C@H](O)[C@@H]2O)cc1 (some centres not stated) too.
Out: > 400 µg/mL

In: Check Nc1ncnc2c1ncn2[C@@H]1O[C@H](/C=C/Cl)[C@@H](O)[C@H]1O too.
Out: > 200 µg/mL
